I'd appreciate it if you could supply relative viability values for the items below.
# Tested on: NCI-H838
# assay notes: relative viability (nuclei count vs DMSO), 5 days (fraction); higher = more cells survive
# setup conditions: first compound 0.8 µM
One number for each entry.

Worked examples, 4 compounds total:
compound	relative viability
Oc1nc(-c2ccc(C(F)(F)F)cc2)nc2c1CSCC2 [XAV939] + CS(=O)(=O)N1CCN(Cc2cc3nc(-c4cccc5[nH]ncc45)nc(N4CCOCC4)c3s2)CC1 [Pictilisib] (partner 1 µM)	0.343
Oc1nc(-c2ccc(C(F)(F)F)cc2)nc2c1CSCC2 [XAV939] + NC(=O)Nc1cc(-c2cccc(F)c2)sc1C(=O)N[C@H]1CCCNC1 [AZD7762] (partner 0.2 µM)	0.923
C=C1C(=O)O[C@@H](CCCCCCCC)[C@@H]1C(=O)O [C-75] + CC(C)C[C@H](NC(=O)[C@H](Cc1ccccc1)NC(=O)c1cnccn1)B(O)O [Bortezomib] (partner 0.002 µM)	0.8
Oc1nc(-c2ccc(C(F)(F)F)cc2)nc2c1CSCC2 [XAV939] + CS(=O)(=O)CCNCc1ccc(-c2ccc3ncnc(Nc4ccc(OCc5cccc(F)c5)c(Cl)c4)c3c2)o1 [Lapatinib] (partner 2 µM)	0.949

Please turn your attention to the following entry.
Give the reported relative viability for this compound. Oc1nc(-c2ccc(C(F)(F)F)cc2)nc2c1CSCC2 [XAV939] + CC(=O)Nc1cccc(-n2c(=O)n(C3CC3)c(=O)c3c(Nc4ccc(I)cc4F)n(C)c(=O)c(C)c32)c1 [Trametinib] (partner 0.02 µM)
0.392

----------
# Test system: SW 900
# assay notes: relative viability (nuclei count vs DMSO), 5 days (fraction); higher = more cells survive
# setup conditions: first compound 0.005 µM
reported metric: relative viability
Answers are plain numbers.

Examples from the recorded data:
molecule	relative viability
CC1(C)CCC(c2ccc(Cl)cc2)=C(CN2CCN(c3ccc(C(=O)NS(=O)(=O)c4ccc(N[C@H](CCN5CCOCC5)CSc5ccccc5)c(S(=O)(=O)C(F)(F)F)c4)cc3)CC2)C1 [Navitoclax] + CC(=O)Nc1cccc(-n2c(=O)n(C3CC3)c(=O)c3c(Nc4ccc(I)cc4F)n(C)c(=O)c(C)c32)c1 [Trametinib] (partner 0.02 µM)	0.706
CC1(C)CCC(c2ccc(Cl)cc2)=C(CN2CCN(c3ccc(C(=O)NS(=O)(=O)c4ccc(N[C@H](CCN5CCOCC5)CSc5ccccc5)c(S(=O)(=O)C(F)(F)F)c4)cc3)CC2)C1 [Navitoclax] + O=C(CCCCCCC(=O)Nc1ccccc1)NO [Vorinostat] (partner 1 µM)	0.432

Please turn your attention to the following entry.
Please supply the value of reported relative viability for the item CC1(C)CCC(c2ccc(Cl)cc2)=C(CN2CCN(c3ccc(C(=O)NS(=O)(=O)c4ccc(N[C@H](CCN5CCOCC5)CSc5ccccc5)c(S(=O)(=O)C(F)(F)F)c4)cc3)CC2)C1 [Navitoclax] + Cc1nc(Nc2ncc(C(=O)Nc3c(C)cccc3Cl)s2)cc(N2CCN(CCO)CC2)n1 [Dasatinib] (partner 0.075 µM)
0.504

----------
# Test system: HARA
# assay notes: relative viability (nuclei count vs DMSO), 5 days (fraction); higher = more cells survive
# setup conditions: first compound 0.01 µM
For each record, write down the corresponding relative viability.
Answers are plain numbers.

Worked cases, answers included:
molecule	observed value
NC(=O)Nc1cc(-c2cccc(F)c2)sc1C(=O)N[C@H]1CCCNC1 [AZD7762] + C[C@@H](Oc1cc(-c2cnn(C3CCNCC3)c2)cnc1N)c1c(Cl)ccc(F)c1Cl [Crizotinib] (partner 1 µM)	1.11
NC(=O)Nc1cc(-c2cccc(F)c2)sc1C(=O)N[C@H]1CCCNC1 [AZD7762] + Cc1cc(Nc2cc(N3CCN(C)CC3)nc(Sc3ccc(NC(=O)C4CC4)cc3)n2)n[nH]1 [Tozasertib] (partner 0.1 µM)	0.113

From here, focus on the item given below.
Determine its reported relative viability: NC(=O)Nc1cc(-c2cccc(F)c2)sc1C(=O)N[C@H]1CCCNC1 [AZD7762] + CC1(C)CCC(c2ccc(Cl)cc2)=C(CN2CCN(c3ccc(C(=O)NS(=O)(=O)c4ccc(N[C@H](CCN5CCOCC5)CSc5ccccc5)c(S(=O)(=O)C(F)(F)F)c4)cc3)CC2)C1 [Navitoclax] (partner 0.5 µM)
1.12

----------
# Tested on: HCC-78
# assay notes: relative viability (nuclei count vs DMSO), 5 days (fraction); higher = more cells survive
# setup conditions: first compound 0.01 µM
reported metric: relative viability
Give bare numbers.

Example molecules with recorded relative viability:
molecule	relative viability
NC(=O)Nc1cc(-c2cccc(F)c2)sc1C(=O)N[C@H]1CCCNC1 [AZD7762] + CC(=O)c1c(C)c2cnc(Nc3ccc(N4CCNCC4)cn3)nc2n(C2CCCC2)c1=O [Palbociclib] (partner 0.5 µM)	0.444
NC(=O)Nc1cc(-c2cccc(F)c2)sc1C(=O)N[C@H]1CCCNC1 [AZD7762] + CC(=O)Nc1cccc(-n2c(=O)n(C3CC3)c(=O)c3c(Nc4ccc(I)cc4F)n(C)c(=O)c(C)c32)c1 [Trametinib] (partner 0.02 µM)	0.937
NC(=O)Nc1cc(-c2cccc(F)c2)sc1C(=O)N[C@H]1CCCNC1 [AZD7762] + Nc1nc2[nH]cc(CCc3ccc(C(=O)N[C@@H](CCC(=O)O)C(=O)O)cc3)c2c(=O)[nH]1 [Pemetrexed] (partner 0.2 µM)	0.927
NC(=O)Nc1cc(-c2cccc(F)c2)sc1C(=O)N[C@H]1CCCNC1 [AZD7762] + N=C(N)NC(=N)NCCc1ccccc1 [Phenformin] (partner 250 µM)	0.737

Then there is this molecule:
Determine reported relative viability for NC(=O)Nc1cc(-c2cccc(F)c2)sc1C(=O)N[C@H]1CCCNC1 [AZD7762] + Cc1nc(NC(=O)N2CCC[C@H]2C(N)=O)sc1-c1ccnc(C(C)(C)C(F)(F)F)c1 [Alpelisib] (partner 2 µM) ; test system: HCC-78.
0.371

----------
# System: NCI-H1563
# assay notes: relative viability (nuclei count vs DMSO), 5 days (fraction); higher = more cells survive
# setup conditions: first compound 0.01 µM
What relative viability was measured for each of the following?
Give bare numbers.

compound	reported metric	observed value
NC(=O)Nc1cc(-c2cccc(F)c2)sc1C(=O)N[C@H]1CCCNC1 [AZD7762] + COc1cc2c(Oc3ccc(NC(=O)C4(C(=O)Nc5ccc(F)cc5)CC4)cc3F)ccnc2cc1OCCCN1CCOCC1 [Foretinib] (partner 0.25 µM)	relative viability	1.04
NC(=O)Nc1cc(-c2cccc(F)c2)sc1C(=O)N[C@H]1CCCNC1 [AZD7762] + Cc1nc(Nc2ncc(C(=O)Nc3c(C)cccc3Cl)s2)cc(N2CCN(CCO)CC2)n1 [Dasatinib] (partner 0.075 µM)	relative viability	0.451
NC(=O)Nc1cc(-c2cccc(F)c2)sc1C(=O)N[C@H]1CCCNC1 [AZD7762] + CC(C)C[C@H](NC(=O)[C@H](Cc1ccccc1)NC(=O)c1cnccn1)B(O)O [Bortezomib] (partner 0.002 µM)	relative viability	0.843

Turning now to a further compound:
Consider the compound NC(=O)Nc1cc(-c2cccc(F)c2)sc1C(=O)N[C@H]1CCCNC1 [AZD7762] + CCNC(=O)c1noc(-c2cc(C(C)C)c(O)cc2O)c1-c1ccc(CN2CCOCC2)cc1 [Luminespib] (partner 0.01 µM) and give its recorded relative viability.
0.524

----------
Kindly supply the reported relative viability values for the records listed here.
# Tested on: NCI-H441
# assay notes: relative viability (nuclei count vs DMSO), 5 days (fraction); higher = more cells survive
# setup conditions: first compound 0.04 µM

Below are worked cases with known answers.
compound	relative viability
O=C(O)c1ccc(-c2c[nH]c3ncc(-c4ccccc4)cc23)cc1C1CCCC1 + CC(=O)Nc1cccc(-n2c(=O)n(C3CC3)c(=O)c3c(Nc4ccc(I)cc4F)n(C)c(=O)c(C)c32)c1 [Trametinib] (partner 0.02 µM)	0.48
O=C(O)c1ccc(-c2c[nH]c3ncc(-c4ccccc4)cc23)cc1C1CCCC1 + C[C@@H](Oc1cc(-c2cnn(C3CCNCC3)c2)cnc1N)c1c(Cl)ccc(F)c1Cl [Crizotinib] (partner 1 µM)	0.601
O=C(O)c1ccc(-c2c[nH]c3ncc(-c4ccccc4)cc23)cc1C1CCCC1 + Nc1ncn([C@H]2C[C@H](O)[C@@H](CO)O2)c(=O)n1 [Decitabine] (partner 2 µM)	0.221
O=C(O)c1ccc(-c2c[nH]c3ncc(-c4ccccc4)cc23)cc1C1CCCC1 + Cc1nc(Nc2ncc(C(=O)Nc3c(C)cccc3Cl)s2)cc(N2CCN(CCO)CC2)n1 [Dasatinib] (partner 0.075 µM)	0.737

Identify measured relative viability associated with O=C(O)c1ccc(-c2c[nH]c3ncc(-c4ccccc4)cc23)cc1C1CCCC1 + Cc1cc(Nc2cc(N3CCN(C)CC3)nc(Sc3ccc(NC(=O)C4CC4)cc3)n2)n[nH]1 [Tozasertib] (partner 0.1 µM)
0.71
